Test system: MDA-MB-435
experimentDescription: NCI tumour cell line growth inhibition, 48 h
The source made the active and inactive calls. Cut-off read from the data, not from the text of the source: active = GI50 up to about 1.1 µM and inactive = higher.
Respond only with the outcome that fits, drawn from 1 = active, 0 = inactive

{"compound": "Cn1cc(S(=O)(=O)NC(=O)Nc2ccc(Cl)cc2)c(=O)c2ccc(F)cc21", "group": 0}
{"compound": "c1ncc(C23C4C5C6C4C2C6C53)[nH]1 (centres undefined)", "group": 0}

Outcome logged for COC(=O)N[C@H](C(=O)O)C(C)O[Si](C)(C)C(C)(C)C (some centres undefined) in this assay: 0

Outcome logged for OC[C@@H](O)[C@H](O)[C@@H](O)/C=N/Nc1ccc(Cl)nn1 in this assay: 0

Outcome logged for Oc1cccc2c1[nH]c1c(C3=C[C@@]4(O)CC/C=C\CCCCN5CC[C@@H]3[C@]3(CC6/C=C\CCCCN6[C@H]34)C5)nccc12 (some centres undefined) in this assay: 1

Outcome logged for CN(O)C(=O)/C=C/c1ccc(OCc2cccc(Cl)c2)cc1 in this assay: 0

Outcome logged for C=CCNC1=C2C[C@@H](C)C[C@@H](OC)[C@H](OC(=O)CCN)[C@H](C)/C=C(\C)[C@@H](OC(N)=O)[C@H](OC)/C=C\C=C(/C)C(=O)NC(=CC1=O)C2=O in this assay: 0

Outcome logged for O=c1c(Cc2c(O)ccc3ccccc23)nnc2sc(-c3nn4c(=O)c(Cc5c(O)ccc6ccccc56)nnc4s3)nn12 in this assay: 0

Outcome logged for CN1CCc2c([nH]c3ccccc23)C1 in this assay: 0

Provenance of the data: ChEMBL document CHEMBL1201862
